Entry source: patent US11744903B2

# Assay Summary: Encapsulation rate of β-CD-MOF for active substances
# Format: physicochemical
# Test Conditions: carrier β-CD-MOF; loaded by impregnation, Examples 1-5
Hi there, I'd appreciate the recorded Encapsulation rate for every entry that follows.
Record the value in %, omitting the unit from your answer.

May I ask what Encapsulation rate has been recorded for COc1cc2c(=O)c(-c3ccc(O)cc3)coc2cc1O ?
76.34

May I ask what Encapsulation rate has been recorded for Cc1coc2c1C(=O)C(=O)c1c-2ccc2c1CCCC2(C)C ?
76.40

May I ask what Encapsulation rate has been recorded for Oc1ccc(C=Cc2cc(O)cc(O)c2)cc1 ?
82.19

May I ask what Encapsulation rate has been recorded for O=C/C=C/c1ccccc1 ?
79.68

May I ask what Encapsulation rate has been recorded for O=C1C[C@@H](c2ccc(O)cc2)Oc2cc(O)cc(O)c21 ?
70.23
